Tested System: SiOBP15 (Solenopsis invicta, UniProt F1DI94)
Sequence (F1DI94 entry or part of it): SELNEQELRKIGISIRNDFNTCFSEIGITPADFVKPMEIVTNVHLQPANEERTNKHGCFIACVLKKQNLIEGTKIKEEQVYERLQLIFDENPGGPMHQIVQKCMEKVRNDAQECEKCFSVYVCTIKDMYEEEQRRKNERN
Method Summary: 1-NPN fluorescent binding / competition (displacement) assay, purified SiOBP15
Condition Details: 1-NPN competition, SiOBP15 alone
Property Label: binding to SiOBP15 (in words)

1) CCCCC/C=C\C/C=C\CCCCCCCC(=O)O [linoleic acid, cis,cis-9,12-linoleic acid] ... able to bind
2) CC(=O)C(C)=O [2,3 butanedione] ... binds
3) CC(=O)C(C)O (centres unmarked) [acetoin] ... binds
4) CCCCCCCC/C=C\CCCCCCCC(=O)O [oleic acid] ... able to bind

* * *

Tested System: SiOBP15 + SiApoLp III (Solenopsis invicta, UniProt F1DI94)
Sequence (Q6B972 entry or part of it, one chain of several, further chain): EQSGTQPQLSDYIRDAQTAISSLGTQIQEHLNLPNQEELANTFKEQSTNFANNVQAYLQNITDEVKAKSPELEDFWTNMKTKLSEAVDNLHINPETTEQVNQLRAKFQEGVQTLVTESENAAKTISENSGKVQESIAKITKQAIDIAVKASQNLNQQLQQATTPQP
Method Summary: 1-NPN fluorescent binding / competition assay, SiOBP15 co-incubated with SiApoLp-III
Condition Details: read-out: Kapp, competition, SiOBP15 + SiApoLp III; 1-NPN displacement; co-incubation of SiOBP15 with SiApoLp-III
pKi: −log10 of the molar value.
pKi reference
Property Label: pKi

1) CC1CCOC1=O (stereo not drawn) [3-methyltetrahydro-2-furanone] ... 4.24
2) CCCCCCCCCCCCCCCCCCCCCC(=O)O ... 4.71

* * *

Tested System: SiOBP15 (Solenopsis invicta, UniProt F1DI94)
Method Summary: 1-NPN fluorescent binding / competition (displacement) assay, purified SiOBP15
Condition Details: 1-NPN displacement; 2 μM 1-NPN, 2 μM protein, 2-40 μM test ligand; read-out: Kapp, competition, SiOBP15
Property Label: Ki (µM)

1) CCCCC=CCCO ... 15.2
2) CCCCC/C=C\C/C=C\CCCCCCCC(=O)O [linoleic acid, cis,cis-9,12-linoleic acid] ... 25.8
3) CC(=O)C(C)O (stereo not shown) ... 26.5

* * *

Tested System: SiOBP15 + SiApoLp III (Solenopsis invicta)
Method Summary: 1-NPN fluorescent binding / competition assay, SiOBP15 co-incubated with SiApoLp-III
Condition Details: 1-NPN competition, complex
Property Label: binding to SiOBP15 incubated with SiApoLp-III (in words)

1) CC(=O)C(C)O (stereo not shown) ... limited binding
2) CC(=O)C(C)=O ... limited binding
3) CCCCCCCC/C=C\CCCCCCCC(=O)O ... did not show binding
4) CCCCC/C=C\C/C=C\CCCCCCCC(=O)O [linoleic acid, cis,cis-9,12-linoleic acid] ... did not show binding

* * *

Tested System: SiOBP15 + SiApoLp III (Solenopsis invicta, UniProt F1DI94)
Method Summary: 1-NPN fluorescent binding / competition assay, SiOBP15 co-incubated with SiApoLp-III
Condition Details: 1-NPN displacement; co-incubation of SiOBP15 with SiApoLp-III; read-out: Kapp, competition, SiOBP15 + SiApoLp III
Ki reference
Property Label: Ki (µM)

1. CC(=O)C(C)O (centres unmarked) ... 83.3
2. CC(=O)C(C)=O ... 70.9

* * *

Tested System: SiOBP15 + SiApoLp III (Solenopsis invicta, UniProt F1DI94)
Method Summary: 1-NPN fluorescent binding / competition assay, SiOBP15 co-incubated with SiApoLp-III
Condition Details: 1-NPN displacement; co-incubation of SiOBP15 with SiApoLp-III; read-out: Kapp, competition, SiOBP15 + SiApoLp III
Ki reference
Property Label: Ki

1. CCCCC=CCCO [3-octenol] ... > 500 µM
2. CCCCCCCC/C=C/CCCCCCCCCC(=O)O [trans-11-eicosenoic acid] ... > 500 µM
3. CCCCC/C=C\C/C=C\CCCCCCCC(=O)O [linoleic acid, cis,cis-9,12-linoleic acid] ... > 500 µM
